Cited source for all entries: paper PMC9107221

TESTED_SYSTEM: Chikungunya/SL-CK1 E2 glycoprotein (Chikungunya virus, strain SL-CK1 …, UniProt Q8JUX5, strain)
PROPERTY_LABEL: binding result

>>> result_value("1E1 (Nb-1E1) (VHH) VHH: AVQLVESGGGLVETGESLRLSCAASGRTIENYHVGWFRQTSGPEREFLAATSRGNGISTIADSVKGRFTISRDNAKNTVYLQMNALKPEDTAVYICAADDANFVNYRSYRAWDNWGQGTQVTVSS")
"binds"
>>> result_value("1A12 (Nb-1A12) (VHH) VHH: AVQLVESGGGLVQAGGSLRLSCAASGRALTSGTMGWFRQAPGKEREFVARANVKGDGTFYADAVKGRFTISRDYAKNTVYLQMNNLKPEDTAVYFCAADRGTVYGTSEDLYDYWGQGTQVTVSS")
"binds"
